Tested on: MDA-MB-231
Experiment: Flow cytometry analysis of cell labeling (labeling efficiency of azido compounds) in MDA-MB-231
Format: cell-based
Conditions: compound 25 μM, 37° C., 48 h, DBCO-biotin then streptavidin-Cy5, mean fluorescence of live cells
Would you mind telling me the reported Mean FL (×10^5) of each entry?

Recorded result, CC(=O)OC1O[C@H](COP(=O)(N[C@@H](C)C(=O)OCc2cccc3ncccc23)Oc2ccccc2)[C@@H](OC(C)=O)[C@H](OC(C)=O)[C@@H]1NC(=O)CN=[N+]=[N-] (stereo partly shown) , Mean FL (×10^5): 13.6 ×10^5

Form: compound = CC(=O)OC1O[C@H](COP(=O)(N[C@@H](C)C(=O)OC(C)(C)C)Oc2ccccc2)[C@@H](OC(C)=O)[C@H](OC(C)=O)[C@@H]1NC(=O)CN=[N+]=[N-] (stereo partly shown) ; Mean FL (×10^5) = 6.43 ×10^5

// CC(=O)OC1O[C@H](COP(=O)(N[C@@H](C)C(=O)OC(C)C)Oc2ccccc2)[C@@H](OC(C)=O)[C@H](OC(C)=O)[C@@H]1NC(=O)CN=[N+]=[N-] (stereo partly shown) : Mean FL (×10^5) value = 12.6 ×10^5

Given item CCCCCCOC(=O)[C@H](C)NP(=O)(OC[C@H]1OC(OC(C)=O)[C@@H](NC(=O)CN=[N+]=[N-])[C@@H](OC(C)=O)[C@@H]1OC(C)=O)Oc1ccccc1 (stereo partly shown) , the value recorded as its Mean FL (×10^5) is 13.0 ×10^5

Field Mean FL (×10^5) (entry CCCCOC(=O)[C@H](C)NP(=O)(OC[C@H]1OC(OC(C)=O)[C@@H](NC(=O)CN=[N+]=[N-])[C@@H](OC(C)=O)[C@@H]1OC(C)=O)Oc1ccccc1 (stereo partly shown) ) reads 12.4 ×10^5

Short answer for CC(=O)OC1O[C@H](COP(=O)(N[C@@H](C)C(=O)OCc2ccnc3ccccc23)Oc2ccccc2)[C@@H](OC(C)=O)[C@H](OC(C)=O)[C@@H]1NC(=O)CN=[N+]=[N-] (stereo partly shown) : Mean FL (×10^5) was 18.0 ×10^5

Lookup result for CCC(CC)COC(=O)[C@H](C)NP(=O)(OC[C@H]1OC(OC(C)=O)[C@@H](NC(=O)CN=[N+]=[N-])[C@@H](OC(C)=O)[C@@H]1OC(C)=O)Oc1ccccc1 (stereo partly shown) ; measured Mean FL (×10^5): 12.2 ×10^5
